FYI, the data here is from patent US11225486B2.

- target.or.test.system: PI3Kδ (p110δ/p85α) Recombinant Human Protein (Homo sapiens (Human))
- Sequence (O00329 whole entry): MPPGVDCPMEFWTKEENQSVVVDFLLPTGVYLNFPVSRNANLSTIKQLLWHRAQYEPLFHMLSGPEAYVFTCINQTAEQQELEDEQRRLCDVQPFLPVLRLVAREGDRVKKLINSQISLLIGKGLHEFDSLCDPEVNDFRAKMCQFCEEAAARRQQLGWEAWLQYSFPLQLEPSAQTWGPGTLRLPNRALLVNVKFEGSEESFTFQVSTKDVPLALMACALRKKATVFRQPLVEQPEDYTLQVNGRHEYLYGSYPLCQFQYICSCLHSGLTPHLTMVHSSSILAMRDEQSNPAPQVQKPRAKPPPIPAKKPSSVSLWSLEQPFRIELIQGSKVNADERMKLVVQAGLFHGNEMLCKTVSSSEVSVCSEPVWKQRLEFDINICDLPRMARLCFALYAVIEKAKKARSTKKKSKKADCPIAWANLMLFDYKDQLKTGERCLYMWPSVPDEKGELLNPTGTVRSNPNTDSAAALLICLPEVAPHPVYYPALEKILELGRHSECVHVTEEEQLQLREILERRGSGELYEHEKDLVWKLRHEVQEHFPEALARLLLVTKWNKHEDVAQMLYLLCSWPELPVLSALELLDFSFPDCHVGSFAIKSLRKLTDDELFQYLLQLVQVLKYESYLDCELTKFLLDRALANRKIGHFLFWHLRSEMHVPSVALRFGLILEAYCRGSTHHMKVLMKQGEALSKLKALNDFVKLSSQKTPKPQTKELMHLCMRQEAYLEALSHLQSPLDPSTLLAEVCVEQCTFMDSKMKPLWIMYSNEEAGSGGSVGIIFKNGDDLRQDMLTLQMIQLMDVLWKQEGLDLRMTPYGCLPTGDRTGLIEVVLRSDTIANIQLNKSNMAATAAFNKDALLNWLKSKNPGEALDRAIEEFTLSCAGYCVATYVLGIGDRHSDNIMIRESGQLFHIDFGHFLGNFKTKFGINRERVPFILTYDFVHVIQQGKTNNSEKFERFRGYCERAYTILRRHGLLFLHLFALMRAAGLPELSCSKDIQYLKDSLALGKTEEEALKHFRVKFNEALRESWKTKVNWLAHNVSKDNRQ
- Sequence (P27986 whole entry partner): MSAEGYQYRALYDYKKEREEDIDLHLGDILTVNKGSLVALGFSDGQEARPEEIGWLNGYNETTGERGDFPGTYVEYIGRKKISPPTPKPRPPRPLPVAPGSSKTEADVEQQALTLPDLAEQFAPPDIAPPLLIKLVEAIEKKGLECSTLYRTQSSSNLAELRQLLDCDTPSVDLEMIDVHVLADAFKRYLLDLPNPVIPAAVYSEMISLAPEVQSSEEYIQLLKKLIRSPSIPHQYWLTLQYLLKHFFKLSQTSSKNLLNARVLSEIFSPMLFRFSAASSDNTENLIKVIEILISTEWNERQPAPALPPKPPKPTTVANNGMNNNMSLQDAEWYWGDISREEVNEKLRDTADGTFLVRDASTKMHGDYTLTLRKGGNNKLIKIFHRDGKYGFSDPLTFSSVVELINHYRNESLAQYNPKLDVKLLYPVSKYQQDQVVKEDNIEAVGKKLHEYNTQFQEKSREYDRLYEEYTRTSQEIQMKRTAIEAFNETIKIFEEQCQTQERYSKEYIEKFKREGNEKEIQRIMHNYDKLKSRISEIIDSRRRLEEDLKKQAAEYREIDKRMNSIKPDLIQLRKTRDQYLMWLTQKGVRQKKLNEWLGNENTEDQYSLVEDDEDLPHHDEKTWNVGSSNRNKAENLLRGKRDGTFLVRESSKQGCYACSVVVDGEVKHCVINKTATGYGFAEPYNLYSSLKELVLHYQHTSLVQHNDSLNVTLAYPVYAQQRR
- assay.notes: PI3Kδ scintillation proximity assay
- Format: biochemical
- assay.context: read-out: P13Kδ IC50
pIC50: −log10 of the molar value. Counter-ions that a name gives are not always drawn.
reported.property: pIC50

* Cc1ncc(-c2cn3c(-c4cc(C(O)(CO)C(F)(F)F)ccc4C)cnc3c(N)n2)s1 (stereo not drawn) [Example 70, trifluoroacetate salt] | > 7.00
* Cc1ccc(C(O)(CO)C(F)(F)F)cc1-c1cnc2c(N)nc(-c3cnco3)cn12 (stereo not drawn) [Example 71, trifluoroacetate salt] | > 7.00
* Cc1ccc(C(O)(CO)C(F)(F)F)cc1-c1cnc2c(N)nc(-c3cnn(C)c3)cn12 (stereo not drawn) [Example 69, trifluoroacetate salt] | > 7.00

----------
- System: Phosphorylated Ribosomal Protein S6 (RPS6) in THP-1 cells
- assay.notes: THP-1 RPS6 ELISA assay
- Type: cell-based
- assay.context: Homo sapiens, THP-1, THP-1 cells, 10 nM MCP-1 stimulation, phospho-RPS6 ELISA; read-out: PI3Kγ_THP1_RPS6_ELISA IC50
reported.property: IC50

- Cc1ccc(C(C)(O)C(F)F)cc1-c1cnc2c(N)nc(-c3c[nH]nc3C)cn12 (stereo not shown): < 0.1 µM
